target: T1, Human EphA2 (Ecto), C-terminal polyHis (Human, UniProt P29317 24-537); assay: FP competition vs Reference Compound C
T1 construct: extracellular domain; R&D systems 3035-A2 or in-house
T1 sequence (P29317 24-537): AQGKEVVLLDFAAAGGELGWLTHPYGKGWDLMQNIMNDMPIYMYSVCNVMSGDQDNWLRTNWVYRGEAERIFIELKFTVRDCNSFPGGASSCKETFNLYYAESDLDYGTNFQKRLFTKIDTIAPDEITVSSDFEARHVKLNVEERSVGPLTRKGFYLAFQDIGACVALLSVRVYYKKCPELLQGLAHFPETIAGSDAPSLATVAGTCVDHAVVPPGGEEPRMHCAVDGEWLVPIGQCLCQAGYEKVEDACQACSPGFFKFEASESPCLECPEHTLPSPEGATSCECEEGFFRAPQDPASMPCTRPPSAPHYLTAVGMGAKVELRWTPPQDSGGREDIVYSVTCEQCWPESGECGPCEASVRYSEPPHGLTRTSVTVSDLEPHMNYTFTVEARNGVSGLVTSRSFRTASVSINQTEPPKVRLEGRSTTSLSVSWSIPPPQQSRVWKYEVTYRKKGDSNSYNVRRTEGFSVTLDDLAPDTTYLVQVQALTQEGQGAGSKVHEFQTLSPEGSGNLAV
*1 amine or outer side, *2 acyl side, *3 side chain or, on linkers, in order; H or OH if unused. Bridges are numbered along the chain shown (N, C = ends). Where no end group is shown, it is not given here. TATA = O=C(CC[*:1])N1CN(C(=O)CC[*:2])CN(C(=O)CC[*:3])C1
I'd be grateful if you could share measured pKi for these entries.
Numbers only, as −log10 of the molar value.

What value of pKi has been reported for the following binder? ACPLVNPLCLAPGWTCA (linker 2-9-16 via TATA; not fully specified (C-terminus)) [Compound 82]
7.34

What value of pKi has been reported for the following binder? ACPDWGKYCAYPDTICA (linker 2-9-16 via TATA; not fully specified (C-terminus)) [Compound 36]
6.80

Kindly review the next binder as well.
What value of pKi has been reported for the following binder? ACGFMGLEPCETFCA (linker 2-10-14 via TATA; not fully specified (C-terminus)) [Compound 40]
6.73
